Test: Neurotoxicity in po dosed albino mouse after 1 hr
Assay type: toxicity, organism-based
Conditions: in vivo
READOUT: TD50 at 1 h (µmol/kg)
Lab book: enter the figure in µmol/kg, no units written.

I would be grateful if you could share the reported TD50 at 1 h for CCC1(C)CC(=O)NC1=O (stereo unspecified) [ETHOSUXIMIDE] .
2410

----------
Assay: Protective index, ratio of TD50 for neurotoxicity to ED50 for protection against pentylenetetrazole-induced seizure in albino rat after 0.5 hrs
Format: toxicity, organism-based
Conditions: in vivo, read-out: Ratio TD50/ED50
READOUT: selectivity ratio at 0.5 h

I would be grateful if you could share the reported selectivity ratio at 0.5 h for Cc1nc2ccccc2c(=O)n1C(=S)NC(=O)Nc1nc2ccc(OC(F)(F)F)cc2s1 .
> 4.2
